target: T1, human BACE1 ECD; experiment: Octet, pH 7.5;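 further: antibodies captured on anti-human capture sensor tips, dissociation monitored in PBS with BSA, Kd obtained from kinetic fit to a one-to-one binding model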
T1 construct: analyte of the Octet assay (200 nM) and enzyme of the first short substrate assay; also called human BACE1 extracellular domain
T1 sequence (single chain, as listed by the source limits assumed): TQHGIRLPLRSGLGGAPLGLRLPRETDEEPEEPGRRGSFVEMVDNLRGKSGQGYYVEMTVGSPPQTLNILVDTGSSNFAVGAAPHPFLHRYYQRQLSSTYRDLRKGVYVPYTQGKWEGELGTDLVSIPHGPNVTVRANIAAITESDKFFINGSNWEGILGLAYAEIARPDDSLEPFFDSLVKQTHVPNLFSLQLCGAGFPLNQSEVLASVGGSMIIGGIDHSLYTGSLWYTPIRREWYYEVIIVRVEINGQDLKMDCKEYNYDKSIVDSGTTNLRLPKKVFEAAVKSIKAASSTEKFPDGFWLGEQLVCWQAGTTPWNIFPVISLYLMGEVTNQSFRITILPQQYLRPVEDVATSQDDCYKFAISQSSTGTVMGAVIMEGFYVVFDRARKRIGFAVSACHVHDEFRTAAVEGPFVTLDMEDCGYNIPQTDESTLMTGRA
readout: pKd
The meaning of pKd here: minus log10 of the concentration in molar units.

input: Suppose we examine the binder 6298 (antibody, V domains shown, anti-BACE1 IgG) VH: QLQLQESGPGLVKPSETLSLTCTVSGGSISWSSYYWSWIRQPPGKGLEWIGNIYYSGSTYYNPSLKSRVTISVDTSKNQFSLKLSSVTAADTAVYYCARLGHGYNYFDLWGRGTLVTVSS VL: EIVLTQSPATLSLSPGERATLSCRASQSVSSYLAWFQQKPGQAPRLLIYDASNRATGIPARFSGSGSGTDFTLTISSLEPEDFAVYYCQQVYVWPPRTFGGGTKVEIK ; what pKd value has been reported?
output: 9.41
